Cited source for all entries: the supplement of paper PMC10567573

B1: RIT1 (parent)
chain: FHALVREIRRKEKEAVLAMEKKSK

# Variants of: B1
# experimental.protocol: protein stability index of a GFP-peptide fusion (GPS, HEK-293T) (PSI 1-6); higher = more stable;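 further: lentivirally expressed fusions sorted by FACS into six bins by GFP to DsRed ratio, PSI derived from sequencing read proportions per bin multiplied by bin number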
# protocol.conditions: c terminus: a fixed tail appended
test.readout: protein stability index
One number for each entry.

As a guide, the following entries are already answered.
INSERT INTO measurements (sequence_content, measured) VALUES
  ('FHALVREIRRKEKEAVLAMEKKAK [S23A]', 1.64),
  ('FHALVREIRRKEKEAVLAMEKKEK [S23E]', 1.7),
  ('FHALEREIRRKEKEAVLAMEKKSK [V5E]', 2.65),
  ('FHDLVREIRRKEKEAVLAMEKKSK [A3D]', 2.19);

For the 6 variants below, give their protein stability index values.
1. FHALVYEIRRKEKEAVLAMEKKSK [R6Y]
2. FHALVREIRNKEKEAVLAMEKKSK [R10N]
3. FHALVREIRRKEKEAVLAMAKKSK [E20A]
4. FHALVREIRRKEKKAVLAMEKKSK [E14K]
5. FHALVREIRRKEKEAVLAMEKKHK [S23H]
6. FHALVREIRRKEKRAVLAMEKKSK [E14R]

## Result
[1.73, 2.34, 2.07, 2.89, 1.67, 1.84]

For record FHALVREIRRKEKCAVLAMEKKSK [E14C] the listed protein stability index is 1.58
